target: Nucleoprotein (Rift valley fever virus (strain ZH-548 M12)); assay: inhibitors of RVFV nucleoprotein–RNA binding, primary screen, biochemical, fluorescence polarization (AID 651828); conditions: RVFV N-RNA binding, active compounds read low, concentration not given here
About 25 (0.1%) of roughly 20,000 compounds were called active. Many of the other results were omitted from the sample, so actives are more common in it than they were.
Here, each record is paired with measured % bound data.
Answer with a number only, understood to be in %.

Example entries and their recorded answers appear below.
>>> df
                                   compound  measured_property  recorded_result
0                    N#CCCSc1nccn1Cc1ccccc1            % bound              106
1  COC(=O)Nc1ccc(S(=O)(=O)Nc2cc(OC)nc(OC)n2)cc1            % bound             95.6

(Q) GET /values?readout=% bound&item= Cc1nc(SCC#N)c2c3c(sc2n1)CCCC3
(A) 103

(Q) Same question, CC12CCC(O)CC1=CCC1C2CCC2(C)/C(=N/N)CCC12 (stereo not drawn) this time
(A) 94

(Q) Same question, Cc1nc2cc3nc(-c4cccs4)cnc3cc2n1C this time
(A) 115

(Q) Same question, CCNC(=O)N1c2ccccc2Sc2ccccc21 this time
(A) 93.8

(Q) Same question, CS(=O)(=O)NCC(c1cccs1)N1CCc2ccccc21 (stereo not drawn) this time
(A) 95.9

###

Here, each record is paired with measured % bound data.
molecular target: Nucleoprotein (Rift valley fever virus (strain ZH-548 M12)) (UniProt P21700); experiment: inhibitors of RVFV nucleoprotein–RNA binding, primary screen, biochemical, fluorescence polarization (AID 651828); settings: RVFV N-RNA binding, active compounds read low, concentration not given here
Sequence (P21700 whole entry, looked up): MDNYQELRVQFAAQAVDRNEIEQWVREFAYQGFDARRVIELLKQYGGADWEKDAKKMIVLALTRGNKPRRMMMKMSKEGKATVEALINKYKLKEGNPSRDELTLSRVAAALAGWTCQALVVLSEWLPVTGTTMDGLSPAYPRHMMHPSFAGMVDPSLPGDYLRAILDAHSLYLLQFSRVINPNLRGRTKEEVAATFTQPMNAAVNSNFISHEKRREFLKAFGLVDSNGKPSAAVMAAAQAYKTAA
Out of some 20,000 compounds screened, about 25 (0.1%) were called active. This is one part of a sample in which actives are shown more often than they occur.

>>> print(df.to_string())
                  structure_notation   recorded_result
0      O=C(c1ccc(Br)o1)n1cnc2ccccc21   104% (inactive)
1  O=C(CS(=O)(=O)c1ccccc1)Nc1ccccc1O  95.9% (inactive)
2           CN(C)C(=O)c1cc(Br)ccc1Cl  99.9% (inactive)

(Q) GET /values?readout=% bound&item= O=c1cc(-c2ccccc2)nc(SCc2ccccn2)[nH]1
(A) 93.4% (inactive)

(Q) Same question, CS(=O)(=O)NCCS(=O)(=O)N1CCN(c2ccccc2)CC1 this time
(A) 97.1% (inactive)

(Q) Same question, CCOC(=O)Nc1sccc1C(N)=O this time
(A) 96.8% (inactive)
